test: chemical genetic growth profiling, strain panel (AID 1159580);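 also: tested at 20 µM; growth read once vehicle control cultures reached saturation at 30 °C; 1 = growth at the plate median or of vehicle wells; lower values mean less growth of the strain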; conditions: S. cerevisiae deletion strains, growth OD, locus YFR028C, strain CDC14, hits give low values
In all, about 5,500 compounds went through this assay and about 2,000 (36%) were called active. Another 18% or so got no clear call; they are omitted. The list shows a part of the results.
normalized growth listing for selected molecules.
Keep the answer to the number alone.

These solved cases illustrate the format of a correct answer.
[[record]]
molecule = "O=C(CCSc1cccs1)Nc1cccc(C(F)(F)F)c1"
assay_endpoint = "normalized growth"
experimental_value = 0.952

[[record]]
molecule = "CCCCCc1ccc(S(=O)(=O)Nc2ccc3c(c2)C(=O)OC3)cc1"
assay_endpoint = "normalized growth"
experimental_value = 0.985

[[record]]
molecule = "O=C(CO/N=C\\c1ccc(Cl)cc1Cl)NNC(=S)Nc1cc(Cl)ccc1Cl"
assay_endpoint = "normalized growth"
experimental_value = 0.994

[[record]]
molecule = "O=C(NCc1ccco1)c1csc(C2COc3ccccc3O2)n1 (stereo unspecified)"
assay_endpoint = "normalized growth"
experimental_value = 0.936

[[record]]
molecule = "COc1ccccc1NC(=O)Nc1nn(C)c2cccc(OC)c12"
assay_endpoint = "normalized growth"
experimental_value = 0.93


Now let's try a different one.
INPUT: Consider the molecule `CN(C)/C=C/C(=O)c1ccc(C#Cc2ccccc2)cc1` and give its measured normalized growth.
OUTPUT: 0.98

---

experiment: chemical genetic growth profiling, strain panel (AID 1159580); details: S. cerevisiae deletion strains, growth OD, locus YGL173C, strain kem1, hits give low values
About 2,000 (36%) of roughly 5,500 compounds were called active. About 18% were inconclusive and are not listed. The list shows a part of the results.
ASSAY_ENDPOINT: normalized growth
Number only, no unit.

Answered examples (6):
[[record]]
molecule = "NC(=O)c1ccc(N)nc1"
experimental_value = 0.993

[[record]]
molecule = "O=C(NC(=O)c1c(F)cccc1F)Nc1cc(Cl)c(OC(F)(F)C(F)C(F)(F)F)cc1Cl (centres undefined)"
experimental_value = 0.999

[[record]]
molecule = "CC(=O)O[C@H]1C[C@@H](OC(C)=O)C(C)(C)C2C[C@@H](OC(C)=O)[C@]3(C)C(CC[C@@]4(C)[C@H](c5ccoc5)C(=O)[C@H]5O[C@]543)[C@]21C (some centres undefined)"
experimental_value = 1.01

[[record]]
molecule = "CC1(C)O[C@@H]2[C@@H](CO[C@@]3(COS(N)(=O)=O)OC(C)(C)O[C@@H]23)O1"
experimental_value = 0.998

[[record]]
molecule = "CS(=O)(=O)OCCCCOS(C)(=O)=O"
experimental_value = 1.01

[[record]]
molecule = "COc1ccc(/C=C/C(=O)O)cc1OC"
experimental_value = 0.979


Then this molecule:
INPUT: Fill in the blank: the reported normalized growth of O=C(O)CCCCC1SCC2NC(=O)NC21 (centres undefined) is ____.
OUTPUT: 0.985

---

experiment: chemical genetic growth profiling, strain panel (AID 1159580); conditions: S. cerevisiae deletion strains, growth OD, strain wtn01, hits give low values
Hit rate of the full screen: of about 5,500 compounds, about 2,000 (36%) were called active. Roughly 18% stayed inconclusive and do not appear here. The list shows a part of the results.
ASSAY_ENDPOINT: normalized growth
I only need the number, thanks.

Some solved cases for reference:
[[record]]
molecule = "Nc1ccc(S(=O)(=O)Nc2nccs2)cc1"
experimental_value = 0.997

[[record]]
molecule = "COc1cc(C(=O)O)c(O)c2c1OCO2"
experimental_value = 0.982

[[record]]
molecule = "COc1cc(C)c2c(c1C=O)Oc1c(c(C)c(O)c3c1C(O)OC3=O)OC2=O (stereo not drawn)"
experimental_value = 0.976

[[record]]
molecule = "NC(=O)c1cc[n+](CC2=C(C(=O)O)N3C(=O)C(NC(=O)C(c4ccccc4)S(=O)(=O)[O-])C3SC2)cc1 (stereo not drawn)"
experimental_value = 0.981


INPUT: May I ask what normalized growth has been recorded for Nc1c(Br)cc(Br)cc1CNC1CCC(O)CC1 (stereo not drawn) ?
OUTPUT: 1

INPUT: Can you share its normalized growth? I mean this molecule: `COc1c(C(=O)O)ccc2c1CCC(C)(C)O2`
OUTPUT: 1.01

INPUT: // returns reported normalized growth for input C=CCN1CC[C@]23c4c5ccc(O)c4OC2C(=O)CC[C@@]3(O)[C@H]1C5 (stereo partly drawn)
OUTPUT: 1.01

INPUT: Report normalized growth for `CCOC(N)=O` please.
OUTPUT: 1

---

experiment: chemical genetic growth profiling, strain panel (AID 1159580); details: S. cerevisiae deletion strains, growth OD, locus YLR027C, strain aat2
Screen size: about 5,500 compounds; about 2,000 (36%) were called active. Not shown: some 18% with an inconclusive outcome. Rule as the data show it: active = normalized growth mostly below about 0.91 (no sharp cut-off); inconclusive = no clear call, values can overlap the other calls; inactive = mostly above about 0.92. The list shows a part of the results.
Just give me one of these, please: 1 = active, -1 = inactive

Worked examples follow.
[[record]]
molecule = "CC(Cc1ccc(O)c(O)c1)(NN)C(=O)O (stereo unspecified)"
class_assignment = -1

[[record]]
molecule = "O=C(O)c1cc(=O)c(O)c2c(O)c(O)ccc2c1"
class_assignment = -1

[[record]]
molecule = "CC[C@@H]1[C@@H](O)N2C3C[C@H]1C1C(O)[C@]4(C[C@@H]12)c1ccccc1N(C)[C@@H]34 (stereo partly specified)"
class_assignment = -1

[[record]]
molecule = "Nc1ccc(S(=O)(=O)Nc2nccs2)cc1"
class_assignment = -1


INPUT: Entry NC(=O)c1cc[n+](CC2=C(C(=O)O)N3C(=O)C(NC(=O)C(c4ccccc4)S(=O)(=O)[O-])C3SC2)cc1 (stereo unspecified) : call = ?
OUTPUT: -1

INPUT: How did this test come out for Cc1cccc(CN2CCN(C(c3ccccc3)c3ccc(Cl)cc3)CC2)c1 (stereo unspecified) ?
OUTPUT: 1

---

experiment: chemical genetic growth profiling, strain panel (AID 1159580);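 also: tested at 20 µM; growth read once vehicle control cultures reached saturation at 30 °C; 1 = growth at the plate median or of vehicle wells; lower values mean less growth of the strain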; conditions: S. cerevisiae deletion strains, growth OD, locus YLR262C, strain YPT6 (second series), hits give low values
The campaign covered roughly 5,500 compounds. About 2,000 (36%) were called active. Inconclusive results (about 18%) are left out. The list shows a part of the results.
Each entry below lists one item and its recorded normalized growth value.
Respond with the number and no other words.

Look over these answered cases.
[[record]]
molecule = "CCCN(CCC)CCc1cccc2c1CC(=O)N2"
experimental_value = 0.976

[[record]]
molecule = "CC(COc1ccccc1)N(CCCl)Cc1ccccc1 (centres undefined)"
experimental_value = 0.897

[[record]]
molecule = "CC1=C(/C=C/C(C)=C/C=C/C(C)=C\\C(=O)O)C(C)(C)CCC1"
experimental_value = 0.925


Moving on to the next molecule.
INPUT: Query: normalized growth; subject: `CC[C@]12CCCN3CCc4c(n(c5ccccc45)[C@](O)(C(=O)OC)C1)[C@@H]32`
OUTPUT: 0.977

---

Item-by-item account of normalized growth
assay: chemical genetic growth profiling, strain panel (AID 1159580);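 also: tested at 20 µM; growth read once vehicle control cultures reached saturation at 30 °C; 1 = growth at the plate median or of vehicle wells; lower values mean less growth of the strain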; conditions: S. cerevisiae deletion strains, growth OD, locus YPL051W, strain arl3, hits give low values
Screen size: about 5,500 compounds; about 2,000 (36%) were called active. Another 18% or so got no clear call; they are omitted. The list shows a part of the results.

[[record]]
molecule = "Nc1ccc(S(=O)(=O)Nc2nccs2)cc1"
experimental_value = "1.02 (inactive)"

[[record]]
molecule = "COc1ccc(/C=C/c2cc(O)cc(O)c2)cc1"
experimental_value = "0.973 (inactive)"

[[record]]
molecule = "COc1cc2c(cc1O)CC1c3c(cc(O)c(OC)c3-2)CCN1C (stereo not given)"
experimental_value = "0.994 (inactive)"

[[record]]
molecule = "COc1ccc(/C=C/C(=O)O)cc1OC"
experimental_value = "0.98 (inactive)"


INPUT: Name the reported normalized growth value associated with the molecule `O=c1cccc2n1C[C@H]1CNCC2C1`
OUTPUT: 1 (inactive)

---

assay: chemical genetic growth profiling, strain panel (AID 1159580);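 also: tested at 20 µM; growth read once vehicle control cultures reached saturation at 30 °C; 1 = growth at the plate median or of vehicle wells; lower values mean less growth of the strain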; settings: S. cerevisiae deletion strains, growth OD, locus YJL154C, strain vps35, hits give low values
Among all 5,500 compounds or so, about 2,000 (36%) were called active. About 18% were inconclusive and are not listed. This is one part of the list.
Each entry below carries its reported normalized growth.
No unit in the answer, please; the number alone is enough.

Answered examples (2):
[[record]]
compound = "COc1ccc(CN(CCN(C)C)c2ncccn2)cc1"
experimental_value = 1.01

[[record]]
compound = "CN(Cc1cc(Br)cc(Br)c1N)C1CCCCC1"
experimental_value = 1.03


INPUT: Request the reported normalized growth associated with `C=CCc1cc(OC)c2c(c1OC)OCO2`
OUTPUT: 0.989

INPUT: Would you kindly share the measured normalized growth for CCCCC(CC)CN=C(N)NC(N)=NCCCCCCN=C(N)NC(N)=NCC(CC)CCCC (centres undefined) ?
OUTPUT: 0.0612

INPUT: Quick check: normalized growth of NC(=O)c1cc[n+](CC2=C(C(=O)O)N3C(=O)C(NC(=O)C(c4ccccc4)S(=O)(=O)[O-])C3SC2)cc1 (centres undefined) ?
OUTPUT: 0.998

INPUT: Field request: normalized growth | item: `Nc1nccs1`
OUTPUT: 0.993
